Source of measurements: PubChem BioAssay AID1259423

- Tested on: Aedes aegypti neuropeptide Y-like receptor 7 (NPYLR7)
- protocol_notes: agonists of mosquito NPYLR7 receptor, primary screen, cell-based, Aedes aegypti, calcium fluorescence, mosquito biting behavior (AID 1259423);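 note: 0% = vehicle and 100% = reference agonist at the receptor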
- experimental_conditions: HEK293T NPYLR7/Galpha15, GCaMP6s calcium fluorescence; at 10 µM
Hit rate of the full screen: of about 270,000 compounds, about 410 (0.15%) were called active. Cut-off read from the data, not from the text of the source: active = activation above about 40%; inactive = the rest, inconclusive results apart. This is one part of a sample in which actives are shown more often than they occur.
Hello, when you answer, please use one of the following outcomes: active, inactive

# input Lab log entry: O=C1NC(c2ccc3c(c2)OCO3)C(C(=O)c2ccccc2)C(O)(C(F)(F)F)N1 (stereo not drawn) — outcome as called in the assay?
# output active

# input Lab log entry: NC(=O)CN1C(=O)COc2ccccc21 — outcome as called in the assay?
# output inactive

# input Lab log entry: O=c1[nH]c(Cn2nnc3ccccc3c2=O)nc2ccccc12 — outcome as called in the assay?
# output inactive

# input Lab log entry: O=C1NC(c2ccc(Cl)cc2)C(C(=O)c2ccccc2)C(O)(C(F)(F)F)N1 (stereo not drawn) — outcome as called in the assay?
# output inactive

# input Lab log entry: CCCn1nccc1C(=O)Nc1cc2c(C)cc(=O)oc2cc1C — outcome as called in the assay?
# output inactive

# input Lab log entry: CCOC(C)c1noc(CNC2(c3noc(CC)n3)CCCC2)n1 (stereo not drawn) — outcome as called in the assay?
# output inactive

# input Lab log entry: Cc1c(NC(=O)C(C)(C)c2ccccc2)cccc1C(=O)N1CCOCC1 — outcome as called in the assay?
# output inactive

# input Lab log entry: O=C(Nc1cccc(Cl)c1)c1cn(CC2CCCO2)cc2c(=O)n(-c3ccccc3)nc1-2 (stereo not drawn) — outcome as called in the assay?
# output inactive

# input Lab log entry: COc1ccc(C=C2SC(=S)NC2=O)cc1OC — outcome as called in the assay?
# output inactive

# input Lab log entry: CC(=O)N[C@H]1C[C@@H](c2c(C)nc3sccn23)O[C@@H](C2CCCCC2)C1 — outcome as called in the assay?
# output inactive

# input Lab log entry: N#CCc1nc2ncc(Br)cc2[nH]1 — outcome as called in the assay?
# output inactive

# input Lab log entry: CCOc1nc(-c2ccc(C(F)(F)F)cc2)n(-c2ccc(NCC(O)COCc3ccccc3)cc2)n1 (stereo not drawn) — outcome as called in the assay?
# output inactive

# input Lab log entry: Brc1ccc2nc(-c3ccccc3)c(NC3CCCCC3)n2c1 — outcome as called in the assay?
# output inactive

###

- Test system: Aedes aegypti neuropeptide Y-like receptor 7 (NPYLR7)
- protocol_notes: agonists of mosquito NPYLR7 receptor, primary screen, cell-based, Aedes aegypti, calcium fluorescence, mosquito biting behavior (AID 1259423);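 note: 0% = vehicle and 100% = reference agonist at the receptor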
- experimental_conditions: HEK293T NPYLR7/Galpha15, GCaMP6s calcium fluorescence; at 10 µM; stronger effect = higher value
The campaign covered roughly 270,000 compounds. About 410 (0.15%) were called active. This excerpt belongs to a sample that is enriched for actives.
Provide the reported activation of each item.
State the answer as a number, implicitly in %.

# input Please look up its activation: COc1ccc(C(CC(=O)N(C)Cc2cnccn2)c2ccccc2)cc1 (stereo unspecified)
# output 16

# input Please look up its activation: O=c1c2ccccc2sn1CN1CCN(c2ccc(C(F)(F)F)cn2)CC1
# output 10.9

# input Please look up its activation: CN(C)CC1(O)CCCN(C(=O)c2ccc(N3CCCC3=O)cc2)C1 (stereo unspecified)
# output -3.42

# input Please look up its activation: O=[N+]([O-])c1c(Nc2ccccc2)[nH]c2ccccc12
# output 15.3

# input Please look up its activation: COc1cccc(OC)c1-c1cnnc(NCCN2CCCc3ccccc32)n1
# output 19.3

# input Please look up its activation: COc1ccc(C(=O)NNc2nc3c(C)c(C)ccc3s2)cc1
# output 3.57

###

- Tested on: Aedes aegypti neuropeptide Y-like receptor 7 (NPYLR7)
- protocol_notes: agonists of mosquito NPYLR7 receptor, primary screen, cell-based, Aedes aegypti, calcium fluorescence, mosquito biting behavior (AID 1259423);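 note: 0% = vehicle and 100% = reference agonist at the receptor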
- experimental_conditions: HEK293T NPYLR7/Galpha15, GCaMP6s calcium fluorescence; measured here: Max-Min RFU normalised activation; at 10 µM; stronger effect = higher value
The campaign covered roughly 270,000 compounds. About 410 (0.15%) were called active. The entries come from a sample that favours actives as a whole.
readout_label: activation (%)
State the answer as a number, implicitly in %.

# input Please look up its activation: O=c1[nH]c(Cn2nnc3ccccc3c2=O)nc2ccccc12
# output -3.64

# input Please look up its activation: O=C(NCC1CCCO1)c1cccc(Nc2c(Oc3cccc(Cl)c3)cnn(-c3ccccc3)c2=O)c1 (configuration not stated)
# output 12.8

# input Please look up its activation: Cc1ccc(Sc2ncccc2C(=O)N2CCN(c3nccc(-c4cccc(C(F)(F)F)c4)n3)CC2)cc1
# output 18.9

# input Please look up its activation: CC[C@H]1CN(Cc2cc(Cl)cc(OC)c2OC)CC[C@@]1(C)O
# output -11.2

# input Please look up its activation: CCN(CC)c1ccc2cc(-c3nnc(Nc4ccccc4F)s3)c(=O)oc2c1
# output -12.8

# input Please look up its activation: COc1ccc(-c2cccc(-c3nnc(C)s3)c2)c(OC)c1
# output 1.01

# input Please look up its activation: COc1ccccc1CNC1CC2CCC1(C)C2(C)C (configuration not stated)
# output 2.21

# input Please look up its activation: COc1ccc(CCN2CCC(CN(C)C(=O)c3ccoc3)CC2)cc1
# output 6.16

# input Please look up its activation: CCOc1ccc(NC(=O)CSc2nc3c(c(=O)n2CCOC)SC(C)C3)cc1 (configuration not stated)
# output 0.972

# input Please look up its activation: Cc1ccc(CNc2oc(-c3ccc(S(=O)(=O)N(C)Cc4ccccc4)cc3)nc2C#N)cc1
# output 4.09

# input Please look up its activation: O=C1NC(c2ccc(Cl)cc2)C(C(=O)c2ccccc2)C(O)(C(F)(F)F)N1 (configuration not stated)
# output -4.42

# input Please look up its activation: Nc1ccc2c3c(cccc13)C(=O)NC2=O
# output 136

# input Please look up its activation: COc1ccc(C(CC(=O)N(C)Cc2cnccn2)c2ccccc2)cc1 (configuration not stated)
# output 4.14

# input Please look up its activation: CCOC(=O)OC(C)OC(=O)C1N2C(=O)C(NC(=O)[C@H](N)c3ccccc3)C2SC1(C)C (some centres not stated)
# output -16.7

# input Please look up its activation: O=C(NC1Cc2ccccc2C1)c1ccc(-c2cc(-c3cccc(C(F)(F)F)c3)n[nH]2)cc1
# output 16.8

# input Please look up its activation: O=C1Nc2ccccc2C1=NN=C(C(=O)c1ccccc1)c1ccccc1
# output 10.9

# input Please look up its activation: COc1ccc(C(=O)NCCn2ncc3c(=O)n(Cc4cccc(C)c4)cnc32)cc1
# output -7.02

# input Please look up its activation: O=C1CCC(C(=O)N(Cc2ccc(F)cc2)C2CC2)=NN1c1ccccc1
# output 1.4

# input Please look up its activation: CON(C)C(=O)c1cccc(CN2CCS(=O)(=O)CC2)c1
# output 4.38

# input Please look up its activation: O=C(Nc1cc(F)c(N2CCCC2)c(F)c1)C1Cc2ccccc2O1 (configuration not stated)
# output 0.532

# input Please look up its activation: Cc1ccc(NC(=O)Cn2cnc3sc4c(c3c2=O)CCC4)c(F)c1
# output -15.4

# input Please look up its activation: CC(C)CNC(=O)c1ccc2c(=O)n(Cc3ccccc3)c3nn(CC(N)=O)c(=O)n3c2c1
# output -0.424

# input Please look up its activation: CCCCCCC(=O)Nc1c(-c2ccc(OC)c(OC)c2)nc2cc(C)ccn12
# output 4.02

# input Please look up its activation: CC1Cc2c(NC(=O)CSCc3ccccc3)nn(C)c2NC1=O (configuration not stated)
# output -2.58

# input Please look up its activation: CCc1cc(=O)[nH]c(-n2nc(C)cc2NC(=O)C2c3ccccc3Oc3ccccc32)n1
# output 5.92

# input Please look up its activation: O=S(=O)(Cc1ccc(F)cc1)NCc1ccccc1OC(F)F
# output 1.23

# input Please look up its activation: CC(C)c1ccc(C2CC(c3ccccc3)=Nc3ncnn32)cc1 (configuration not stated)
# output 2.65

# input Please look up its activation: CCC(CO)[n+]1c(C)cc(C=C2Sc3ccccc3N2CC)cc1C (configuration not stated)
# output 44.4

# input Please look up its activation: Cc1nn(-c2ccc(F)cc2F)c(C)c1CCC(=O)N1Cc2cccc3cccc(c23)C1
# output 3.44

# input Please look up its activation: CCOC(=O)C(C)Sc1ccc(NC(=O)C(C)C)nn1 (configuration not stated)
# output -0.597

# input Please look up its activation: O=c1c2ccccc2sn1CN1CCN(c2ccc(C(F)(F)F)cn2)CC1
# output 3.72

# input Please look up its activation: C/C=C\COC1CCCN(C(=O)COc2ccc(Cl)cc2)C1 (configuration not stated)
# output -5.2

# input Please look up its activation: COCCN(Cc1cc(NC(=O)c2cccc(F)c2)ccc1N(C)C)C(=O)NC(C)(C)C
# output -0.561

# input Please look up its activation: CN(Cc1ncc[nH]1)C1CCN(c2ccc3c(c2)OCO3)CC1
# output -10.5

# input Please look up its activation: CCOC(=O)c1ccc2c(c1)nc(SCc1cccc(C(=O)OC)c1)n2Cc1cccc(F)c1
# output -4.5

# input Please look up its activation: CC1CCC(C(C)C)C(OCC(O)CN2CCN(CCO)CC2)C1 (configuration not stated)
# output 22.3

# input Please look up its activation: Nc1[nH]n(-c2c(Cl)cc(Cl)cc2Cl)c(=O)c1N=Nc1cccc(C(F)(F)F)c1
# output -6.22

# input Please look up its activation: Cc1csc(=Nc2ccccc2)n1C1CCCC1
# output 7.29

# input Please look up its activation: O=C(NCCCNC(=O)[C@H]1CCCN1C(=O)COc1ccc(Cl)cc1)c1ccc(F)cc1
# output 6.73

# input Please look up its activation: O=C1NC(c2ccc3c(c2)OCO3)C(C(=O)c2ccccc2)C(O)(C(F)(F)F)N1 (configuration not stated)
# output 72

# input Please look up its activation: CC(=O)N1CCC(C(=O)N2CCCC(C(=O)c3ccc(C(F)(F)F)cc3)C2)CC1 (configuration not stated)
# output -1.09

# input Please look up its activation: Cc1nn(C)cc1N1C(=O)c2cccc3c([N+](=O)[O-])ccc(c23)C1=O
# output -14.9
